Target: RORc ligand binding domain (Homo sapiens)
Construct: host or cells: E. coli
Sequence (P51449 269-508 limits assumed, species assumed): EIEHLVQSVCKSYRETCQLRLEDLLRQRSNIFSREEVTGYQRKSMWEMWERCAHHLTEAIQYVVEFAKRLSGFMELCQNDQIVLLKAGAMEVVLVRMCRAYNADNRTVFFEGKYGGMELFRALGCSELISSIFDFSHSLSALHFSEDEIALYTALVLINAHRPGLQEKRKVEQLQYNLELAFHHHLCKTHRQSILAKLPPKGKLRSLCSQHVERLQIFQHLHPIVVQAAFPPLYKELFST
Assay: In Vitro RORc Ligand Binding Assay (25-[3H]hydroxycholesterol radioligand filtration)
Conditions: In Vitro RORc Ligand Binding Assay; Table 4; read-out: RORc IC50
experimental-endpoint: pIC50
# pIC50: negative log10 of molar concentration; output just the value

C[C@@H]1CCC(c2ccccc2)S(=O)(=O)N1Cc1ccc(OC2CCN(S(C)(=O)=O)CC2)nc1 (single isomer, unassigned) [Example 51]	5.85
CC(=O)N1CCN(c2ccc(CN3C[C@H](C)CC(c4ccccc4)S3(=O)=O)c(F)c2)CC1 (single isomer, unassigned) [Example 170]	7.27
COc1ccc(C2CC[C@H](C)N(Cc3ccc(N4CCN(C(C)=O)CC4)cc3F)S2(=O)=O)cc1 (single isomer, unassigned) [Example 176]	6.88

# lookup: pIC50 of C[C@H]1CCC(c2ccccc2)S(=O)(=O)N1Cc1ccc(N2CCC3(CC2)COC3)cc1F (single isomer, unassigned) [Example 100]
7.92

Field entry: CC(=O)N1CCN(c2ccc(CN3[C@@H](C)CCCC(c4ccccc4)S3(=O)=O)c(F)c2)CC1 (single isomer, unassigned) [Example 322]
7.59

Field entry: COc1cc(N2CCN(C(C)=O)CC2)ccc1CN1[C@@H](C)CCC(c2ccccc2)S1(=O)=O (single isomer, unassigned) [Example 159]
5.79
